# System: BT-549 breast
# procedure-summary: NCI-60 one-dose screen, 48 h (100 = growth as untreated, 0 = no growth, -100 = all killed)
# run-parameters: 10 µM unless noted
Compounds without any hit were thinned out: in the full panel of roughly 83,000, 20% have a hit.
Label Criterion not met if growth falls below 80%; label Criterion met in every other case.

>  <compound>
C=C1C[C@@]2(C)C(CC[C@]3(C)C2CC=C2C4CC(C)(C)C[C@@H](OC(=O)/C(C)=C\C)[C@]4(C(=O)O)CC[C@]23C)C(C)(C)C1=O (some centres not stated)

>  <category>
Criterion not met

$$$$
>  <compound>
CN1C2CCC1/C(=C\c1ccc(Cl)cc1)C(=O)/C2=C/c1ccc(Cl)cc1

>  <category>
Criterion not met

$$$$
>  <compound>
c1ccc2c(N=NSc3ncnc4nc[nH]c34)c3ccccc3nc2c1

>  <category>
Criterion not met

$$$$
>  <compound>
O=C(c1ccc(OCCN2CCCCC2)cc1)c1c(-c2ccc(O)cc2)sc2cc(O)ccc12

>  <category>
Criterion not met

$$$$
>  <compound>
CCOC(=O)C#Cc1c(C(=O)OCC)nnn1[C@@H]1O[C@H](COC(C)=O)[C@@H](OC(C)=O)[C@H]1OC(C)=O

>  <category>
Criterion met

$$$$
>  <compound>
CC(=O)c1ccc(N2C(=O)c3ccc(Oc4ccccc4)cc3C2=O)cc1

>  <category>
Criterion met

$$$$

###

Recorded growth by entry
# Tested on: SK-MEL-28 melanoma
# procedure-summary: NCI-60 one-dose screen, 48 h (100 = growth as untreated, 0 = no growth, -100 = all killed)
# run-parameters: 10 µM unless noted
This is part of a sample that, as a whole, favours compounds with a hit. Of some 83,000 tested, about 20% had one in any assay.
recorded-metric: growth (%)

>  <compound>
COc1ccccc1CNCCCN1C(=O)c2ccc3c4c(ccc(c24)C1=O)C(=O)N(CCCOCCCCOCCCN)C3=O

>  <unit-info>
%

>  <observed-result>
-4.3

$$$$
>  <compound>
COc1cc(/C=N/NC(=O)Cn2c(-c3ccc(C)o3)nc3ccccc32)ccc1OCc1ccccc1

>  <unit-info>
%

>  <observed-result>
99.1

$$$$
>  <compound>
CO[C@H](C(=O)[C@@H](O)[C@@H](C)O)[C@@H]1Cc2cc3cc(O[C@H]4C[C@@H](O[C@H]5C[C@@H](O)[C@H](O)C(C)O5)[C@H](O)C(C)O4)c(C)c(O)c3c(O)c2C(=O)[C@H]1O[C@H]1C[C@@H](O[C@H]2C[C@@H](O[C@H]3C[C@](C)(O)C(=O)C(C)O3)[C@@H](O)C(C)O2)[C@H](O)C(C)O1 (stereo not given in full)

>  <unit-info>
%

>  <observed-result>
-18.8

$$$$
>  <compound>
CC(C)(C)c1ccc(OC(=O)Nc2ccccc2)cc1

>  <unit-info>
%

>  <observed-result>
122

$$$$
>  <compound>
CCCCCCCCCCCCCCCC1=NC(C)(C)CN1C(C)C

>  <unit-info>
%

>  <observed-result>
-80

$$$$
>  <compound>
CCN(CC)CC(=O)Nc1c(C)ccc(N)c1C

>  <unit-info>
%

>  <observed-result>
107

$$$$
>  <compound>
C=C1C(=O)O[C@H]2[C@H]1CC/C(COC(=O)NCc1cn(C)c3ccccc13)=C\CC[C@@]1(C)O[C@@H]21

>  <unit-info>
%

>  <observed-result>
-14.6

$$$$
>  <compound>
COc1cc(C2CC(c3ccccc3)=NN2C=O)ccc1Oc1ccnc2cc(Cl)ccc12 (stereo not given)

>  <unit-info>
%

>  <observed-result>
75.9

$$$$
>  <compound>
CS(=O)(=O)c1ccc(C(=O)N/N=C/c2ccccc2Cl)cc1

>  <unit-info>
%

>  <observed-result>
103

$$$$
>  <compound>
COc1ccc(/C=N/NC(N)=S)c(OC)n1

>  <unit-info>
%

>  <observed-result>
98.5

$$$$
>  <compound>
CCOC(=O)Nc1ccc2nc(Sc3ccc(Cl)cc3)sc2c1

>  <unit-info>
%

>  <observed-result>
38.1

$$$$
>  <compound>
COc1cc2ncnc(Nc3ccc(S(=O)(=O)Nc4nccs4)cc3)c2cc1OCCCN1CCOCC1

>  <unit-info>
%

>  <observed-result>
109

$$$$
>  <compound>
COc1cccc(-c2nc3sccn3c2-c2ccnc(NCCN3CCCNS3(=O)=O)n2)c1

>  <unit-info>
%

>  <observed-result>
44.1

$$$$
>  <compound>
COC(=O)CSc1ccc(Cl)cc1

>  <unit-info>
%

>  <observed-result>
108

$$$$
>  <compound>
Cc1ccc2c(C)c3c(ccc4ccccc43)c[n+]2c1

>  <unit-info>
%

>  <observed-result>
77.8

$$$$
>  <compound>
C=CCN(CC#N)CC=C

>  <unit-info>
%

>  <observed-result>
104

$$$$
>  <compound>
C=CC(=O)N1CN(C(=O)C=C)CN(C(=O)C=C)C1

>  <unit-info>
%

>  <observed-result>
72.7

$$$$
>  <compound>
CN1C(=O)C(C2=NNC(c3ccccc3C(=O)O)C2)C(=O)N(C)C1=O (stereo not given)

>  <unit-info>
%

>  <observed-result>
123

$$$$
>  <compound>
Cc1cc(-c2ccccc2)on1

>  <unit-info>
%

>  <observed-result>
109

$$$$
>  <compound>
COc1ccc(-c2cc(C(=O)Nc3ccc(Br)cc3)nc3[nH]c(=O)sc23)cc1

>  <unit-info>
%

>  <observed-result>
38.5

$$$$
